B1: CPEB3 Ribozyme (parent)
chain: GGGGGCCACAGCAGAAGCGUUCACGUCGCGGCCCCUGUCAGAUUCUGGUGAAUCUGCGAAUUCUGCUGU

# Variants of: B1
# test.summary: self-cleavage, relative activity (ratio to wild type); higher = more cleavage; co-transcriptional
Listed here: items and their measured self-cleavage.

Which measured self-cleavage value corresponds to G11U U69G ?
0.968

Reported self-cleavage, variant G5A G11U : ____
0.778

Value lookup for self-cleavage; key = C18G G37C
0.111

Quick check: self-cleavage of C35A U49C ?
0.342

Record request: self-cleavage value, item A42G G47A
0.955

Which self-cleavage value is on record for C29U G68A ?
0.586

I am curious: what self-cleavage value has been reported for U46C G48A ?
1.03

Which value of self-cleavage has been reported for G4U C45G in the records?
0.587

Record request: self-cleavage value, item G17A A51G
0.455

So what's the measured self-cleavage for this one? G37U G58U
0.362

Using the record for G48A G68C , report its self-cleavage.
0.98

What value of measured self-cleavage is listed for C32U A42G ?
0.914
